system: IGROV1 ovarian; test: NCI-60 one-dose screen, 48 h; conditions: 10 µM unless noted
The panel holds about 83,000 compounds, 20% with a hit somewhere; the sample as a whole holds those more often. The source made the active and inactive calls. The calls were made as follows: active = growth percent below 10; inactive = the rest.
Assign a class; possible classes are Yes for active, No for inactive

These recorded examples may help you get a feel for the data.
COc1cc(CNC(=O)CCCCC[P+](c2ccccc2)(c2ccccc2)c2ccccc2)c(OC)c2c1OCO2 :: No
COc1cc2oc(-c3cccc(C(=O)Nc4ccc(Cl)cc4)c3)cc(=O)c2c(OC)c1OC :: No
CC[C@@]12C=CCN3CC[C@]4(c5cc(NC(=O)COc6cc(OCC(=O)Nc7cc8c(cc7OC)N(C)[C@H]7[C@@](O)(C(=O)OC)[C@H](OC(C)=O)[C@]9(CC)C=CCN%10CC[C@]87[C@@H]%109)cc7oc(-c8ccccc8)cc(=O)c67)c(OC)cc5N(C)[C@@H]4[C@](O)(C(=O)OC)[C@H]1OC(C)=O)[C@H]32 :: Yes
COc1ccc(-c2nc(N/N=C/c3cccc(Br)c3)nc(N3CCOCC3)c2C#N)cc1 :: No
O=C(CN1CCOCC1)Nc1ccc2ncnc(Nc3ccc(Oc4cccc(F)c4)c(Cl)c3)c2c1 :: No

stdin: Hi, do you know how `O=C(Nc1nc2ccc(S(=O)(=O)Nc3ccc(C4(C(F)(F)F)CC4)cc3)cc2[nH]1)c1cnccn1` came out in this test?
stdout: No

stdin: Hi, do you know how `Cc1ccc(-c2csc(/N=C3\C(=O)Nc4ccccc43)n2)cc1` came out in this test?
stdout: No

stdin: Hi, do you know how `COc1ccc(-c2nc(N=Nc3c(O)[nH]c4ccccc34)nc(N3CCOCC3)c2C#N)cc1` came out in this test?
stdout: No

stdin: Hi, do you know how `Cc1ccc2nc3c(cc2c1)CSc1nnc(-c2ccc[nH]c2=S)n1N3` came out in this test?
stdout: No

stdin: Hi, do you know how `Cc1[nH]n(-c2cccc(Cl)c2)c(=O)c1/C=C1\C=Nc2ccc(Br)cc21` came out in this test?
stdout: No

stdin: Hi, do you know how `O=C(CSc1nc2sc3c(c2c(=O)n1Cc1ccccc1)CCCC3)N1CCN(c2ccccc2)CC1` came out in this test?
stdout: No

stdin: Hi, do you know how `O=S(=O)(NCCNc1nccc(-c2c(-c3ccc(F)c(O)c3)nc3sccn23)n1)c1ccccc1` came out in this test?
stdout: No

stdin: Hi, do you know how `Fc1ccc(-n2cc(COc3ncnc4sc5c(c34)CCCC5)nn2)cc1Cl` came out in this test?
stdout: No

stdin: Hi, do you know how `COc1cnccc1-c1nc2ccc3[nH]ncc3c2c2c1CCCC2` came out in this test?
stdout: No
